Test system: E. coli isolate 14 (qepA)
Test: Cross-resistance MIC assay, clinical isolate
Parameters: unit not given beside the values
Conditions: resistance QL, protocol as section 5 (CAMHB; there µg mL-1), unit not given in Table S5
MEASUREMENT KIND: MIC

[[record]]
mol = "NC[C@H]1O[C@H](O[C@H]2[C@H](O)[C@@H](O[C@H]3O[C@H](CO)[C@@H](O)[C@H](N)[C@H]3O)[C@H](N)C[C@@H]2N)[C@H](N)C[C@@H]1O"
value_comparator = "="
number = 0.5

[[record]]
mol = "CO[C@@]1(NC(=O)Cc2cccs2)C(=O)N2C(C(=O)O)=C(COC(N)=O)CS[C@@H]21"
value_comparator = "="
number = 8

[[record]]
mol = "CO/N=C(\\C(=O)N[C@@H]1C(=O)N2C(C(=O)O)=C(COC(C)=O)CS[C@H]12)c1csc(N)n1"
value_comparator = ">"
number = 64

[[record]]
mol = "CN(C)[C@@H]1C(O)=C(C(N)=O)C(=O)[C@@]2(O)C(O)=C3C(=O)c4c(O)cccc4[C@@](C)(O)[C@H]3C[C@@H]12"
value_comparator = "="
number = 4

